FYI, the data here is from PubChem BioAssay (NCI).

assay: NCI Yeast Anticancer Drug Screen. Data for the mlh1 rad18 strain (AID 175); settings: S. cerevisiae mlh1 rad18 strain growth inhibition; at 5.0 µM (retest, dose inferred, filed as 0.5)
This is part of a sample that, as a whole, favours compounds with a hit. Of some 79,000 tested, about 15% had one in any assay. Calls of active or inactive are those of the source. Cut-off read from the data, not from the text of the source: active = growth inhibition above about 70%; inactive = the rest.
Just give me one of these, please: active, inactive

### Prompt State the result this test recorded for `Oc1cc(-[n+]2ccc3ccccc3c2)c(O)c2ccccc12` .
### Response inactive

### Prompt Name the outcome recorded for `N/C(=N\N=C/c1ccc(O)c(O)c1O)NO` in the assay.
### Response inactive

### Prompt Give the logged outcome of this assay for the following molecule: `CN(C)CCCc1ccc2oc3ccccc3c2c1`
### Response inactive

### Prompt For `O=Nc1c(NO)c2ccccc2c2ccccc12` , what call appears in the results of this test?
### Response inactive

### Prompt Entry `CC1=NOC(=O)/C1=C/c1ccc(Cl)c(Cl)c1` : call = ?
### Response inactive

### Prompt Please state the recorded outcome for this molecule: N#CC(C(=O)C(=O)Nc1ccc(Cl)cc1)c1c(Cl)cccc1Cl (configuration not stated)
### Response inactive

### Prompt Would you mind telling me which call this test gave `O=C1c2cc(Br)cc(Br)c2NCCC1(Br)Br` ?
### Response active

---

assay: NCI Yeast Anticancer Drug Screen. Data for the cln2 rad14 strain (AID 165); conditions: S. cerevisiae cln2 rad14 strain, at 50.0 µM (retest, dose inferred, filed as 5.0)
The panel holds about 79,000 compounds, 15% with a hit somewhere; the sample as a whole holds those more often. Active and inactive are the calls of the source. No stated cut-off is given here; in the data, active means growth inhibition above about 70%; inactive means the rest.
# output must be one of active, inactive

### Prompt Which outcome was entered for the compound `CCOC(=O)/C(=C/c1ccccc1Br)P(=O)(OCC)OCC` in this test?
### Response inactive

### Prompt Lab log entry: `SCCCCCCCCCCS` — outcome as called in the assay?
### Response active

### Prompt What call does the record list for `O=C1CNC(=O)c2cc(Cl)ccc2N1` ?
### Response inactive

### Prompt Test call, this compound: `CN(C)CCCc1ccc2oc3ccccc3c2c1`
### Response inactive

### Prompt Fill in: this test's call for COCCNC(=O)C1C(=O)N(CCOC)C(=O)/C1=N/N (centres undefined) is ___
### Response inactive

### Prompt Per the records of this test, what outcome belongs to `C=CNC(=O)Oc1ccccc1` ?
### Response inactive

### Prompt For this compound, state the assay outcome: CCN(C(=O)c1ccccc1C)C(c1ccccc1)P(=O)(c1ccccc1)c1ccccc1 (centres undefined)
### Response active

### Prompt Could you please tell me the result logged for CC(=O)OC1CCC2(C)C(=CCC3C2CCC2(C)C3CC(C(N)=O)C2C(C)=O)C1 (centres undefined) in this assay?
### Response inactive

### Prompt Query: recorded result category for CC(C)C1=CC(=O)C(C)(C2C(O)CC3(C)C4CC=C5C(CCC(O)C5(C)C)C4(C)C(=O)CC23C)O1 (centres undefined) in this test
### Response active

### Prompt Fill in: this test's call for `CCCCCCC[n+]1ccc(C(=O)c2ccccc2)cc1` is ___
### Response active

### Prompt Hi, do you know how `O=C(NN=C1CCCCC1)c1ccc([N+](=O)[O-])cc1` came out in this test?
### Response inactive

### Prompt Field: outcome | Entry: `CCN(CC)CCCCCCNc1cc(Cl)cc2cccnc12`
### Response inactive

### Prompt Status in this test for `Ic1[nH]c(I)c(I)c1I` ?
### Response active

### Prompt Status in this test for COC(=O)C1(C)CC2C(C)(CCC3(C)C4=CC=C5C(=CC(=O)C(O)=C5C)C4(C)CCC23C)CC1O (centres undefined) ?
### Response active

### Prompt How did this test come out for `BrCc1ccc([Si](c2ccccc2)(c2ccccc2)c2ccc(CBr)cc2)cc1` ?
### Response inactive

### Prompt So what was the verdict on CCN(CC)CCOc1ccc(C(O)(Cc2ccc(Cl)cc2)c2ccccc2)cc1 (centres undefined) in this test?
### Response active

### Prompt Outcome logged for `O/N=C(/Cc1nc2cc(Cl)c(Cl)cc2nc1C/C(=N/O)c1ccncc1)c1ccncc1` in this assay:
### Response inactive

### Prompt Kindly provide the recorded test outcome for the following compound: `CCCCCCOC(=O)Nc1ccc(S(=O)(=O)N2CCCCC2)cc1`
### Response inactive

### Prompt I would be grateful if you could indicate the recorded call for `N=c1ccc2c(c1)[nH]c1c3ccccc3[nH]c3cccc2c31` .
### Response active

### Prompt Kindly provide the recorded test outcome for the following compound: `CCCOC(=O)C#CC(=O)OCCC`
### Response active

### Prompt Could you please tell me the result logged for Cc1ccc2c(c1)C1C(CC2)C2C(=O)OC(=O)C2C2CCc3ccc(C)cc3C21 (centres undefined) in this assay?
### Response active

### Prompt Short answer needed: outcome of this test for `Fc1ccc(CSC(=S)Nc2ccc(Br)cc2)cc1` ?
### Response active

### Prompt Any idea what this test logged for Clc1ccc(CSc2ncnc3c2ncn3C2CCCCO2)cc1 (centres undefined) ?
### Response active

### Prompt For `CCCCN(C)N=Nc1c(C(N)=O)n[nH]c1C(C)C` , what call appears in the results of this test?
### Response inactive
